FYI, the data here is from patent US20140135310A1.

tested on: α1 adrenergic receptors (rat cerebral cortex); test: Radioligand binding assay, adrenergic α1 receptors; conditions: test compound 1×10^−6 M
observable: α1 [%] (%)

molecule | target-entity | unit-tag | value-observed
O=S(=O)(NC1CCN(CCCc2noc3cc(F)ccc23)C1)c1cccc2ccccc12 (stereo not drawn) [Compound 20] | α1 adrenergic receptors (rat cerebral cortex) | % | 86
O=S(=O)(NC1CCN(CCCc2noc3cc(F)ccc23)C1)c1ccc(-c2ccccc2)cc1 (stereo not drawn) [Compound 195] | α1 adrenergic receptors (rat cerebral cortex) | % | 79
O=S(=O)(NCC1CCN(CCOc2cccc3ccccc23)C1)c1ccc2ccccc2c1 (stereo not drawn) [Compound 124] | α1 adrenergic receptors (rat cerebral cortex) | % | 33
O=S(=O)(NCC1CCN(CCOc2cccc3c2OCCO3)C1)c1ccc(Cl)cc1 (stereo not drawn) [Compound 289] | α1 adrenergic receptors (rat cerebral cortex) | % | 46
O=S(=O)(NCC1CCN(CCOc2cccc3c2OCCO3)C1)c1ccc(Cl)c(Cl)c1 (stereo not drawn) [Compound 301] | α1 adrenergic receptors (rat cerebral cortex) | % | 46
O=S(=O)(NCC1CN(CCCc2noc3cc(F)ccc23)C1)c1cccc2ccccc12 [Compound 133] | α1 adrenergic receptors (rat cerebral cortex) | % | 90
Cc1c(S(=O)(=O)N[C@H]2CCN(CCCc3noc4cc(F)ccc34)C2)sc2ccc(F)cc12 [Compound 203] | α1 adrenergic receptors (rat cerebral cortex) | % | 91
Cc1cc(S(=O)(=O)NC2CCN(CCCc3noc4cc(F)ccc34)C2)c(C)s1 (stereo not drawn) [Compound 221] | α1 adrenergic receptors (rat cerebral cortex) | % | 85
O=S(=O)(NCC1CCN(CCOc2cccc3ccccc23)C1)c1cc2ccc(Cl)cc2s1 (stereo not drawn) [Compound 269] | α1 adrenergic receptors (rat cerebral cortex) | % | −1
Cc1c(S(=O)(=O)NCC2CN(CCCc3noc4cc(F)ccc34)C2)sc2ccc(F)cc12 [Compound 130] | α1 adrenergic receptors (rat cerebral cortex) | % | 86
Cc1c(S(=O)(=O)NCC2CN(CCOc3cccc4ccccc34)C2)sc2ccc(Cl)cc12 [Compound 167] | α1 adrenergic receptors (rat cerebral cortex) | % | 3
CC(C)(C)c1ccc(S(=O)(=O)NCC2CN(CCOc3cccc4c3OCCO4)C2)cc1 [Compound 181] | α1 adrenergic receptors (rat cerebral cortex) | % | 50
CC1(C)Cc2cccc(OCCN3CCC(NS(=O)(=O)c4ccc5ccccc5c4)CC3)c2O1 [Compound 110] | α1 adrenergic receptors (rat cerebral cortex) | % | 45
O=S(=O)(NCC1CN(CCCc2c[nH]c3ccc(F)cc23)C1)c1ccc2ccccc2c1 [Compound 160] | α1 adrenergic receptors (rat cerebral cortex) | % | 49
Cn1ccc2cc(S(=O)(=O)NCC3CCN(CCOc4cccc5ccccc45)C3)ccc21 (stereo not drawn) [Compound 274] | α1 adrenergic receptors (rat cerebral cortex) | % | 41
